# Protocol text: Solubility of drugs in vegetable oils (castor oil, soybean oil)
# Conditions: soybean oil BP, oil or lipid, thermodynamic from solid
# Protocol: The solubility of flurbiprofen in different vegetable oils was measured by the addition of increasing quantities of the drug to an oil system and determination of the maximum amount that will dissolve by observation of the resultant solution and the onset of a cloudy nature or precipitation.
Attribute measured: solubility

Recorded solubility for CC(C(=O)O)c1ccc(-c2ccccc2)c(F)c1 (stereo not shown) [flurbiprofen] , please?
< 50 mg/mL
